Assay name: RP, Waters Symmetry C18, 100 × 2.1 mm; A: water + 0.1% formic acid, pH 3; B: acetonitrile + 0.1% formic acid, pH 3; gradient (min/%B) 0/5 24/95 29/95 29.1/5
Experimental parameters: stereoisomer not certain
Observable: LC retention time (min)
Kindly provide the numeric value in min only, without the unit symbol.

// below: answered molecules
1. COc1ccc(-c2coc3cc(O)cc(O)c3c2=O)cc1
16.1
2. CC1OC(OC2C(c3c(O)cc(O)c4c(=O)cc(-c5ccc(O)cc5)oc34)OC(CO)C(O)C2O)C(O)C(O)C1O (stereo not drawn) [Vitexin-2''-O-rhamnoside]
9.58

# input for lookup
Fill blank: measured LC retention time of the molecule Nc1ncnc2c1ncn2C1OC(CO)C(O)C1O (stereo not drawn) is ____.
1.52
